Below are pIC50 values measured for hAPN (aminopeptidase N) (Homo sapiens).
pIC50: −log10 of the molar value. Non-standard residues stand in square brackets, D forms with d. Residues, ends and D or L forms follow the SMILES beside them. Nle = CCCC[C@H](N)C(=O)O

Some compounds with recorded pIC50:
[[record]]
compound = "CCCC[C@H](N)C(=O)N[C@@H](CC(=O)O)C(=O)N[C@@H](CCC(N)=O)C(=O)N[C@H](C(=O)N[C@@H](Cc1ccc(O)cc1)C(=O)O)[C@@H](C)CC [nDQIY] (H-[Nle]DQIY-OH)"
measured_value = "< 3.30"

[[record]]
compound = "C[C@H](NC(=O)[C@@H](N)CC(=O)O)C(=O)N[C@@H](CCCNC(=N)N)C(=O)N[C@@H](CCCCN)C(=O)O [DARK] (H-DARK-OH)"
measured_value = "< 3.30"

[[record]]
compound = "C[C@@H](O)[C@H](NC(=O)[C@H](CO)NC(=O)[C@@H](N)CC(=O)O)C(=O)N[C@@H](Cc1ccccc1)C(=O)O [DSTF] (H-DSTF-OH)"
measured_value = "< 3.30"


Could you now consider this next compound?
Given the entry CCCC[C@H](N)C(=O)N[C@@H](Cc1c[nH]cn1)C(=O)N[C@@H](CO)C(=O)N1CCC[C@H]1C(=O)N[C@@H](Cc1c[nH]c2ccccc12)C(=O)O [nHSPW] (H-[Nle]HSPW-OH) , report its measured pIC50. 5.19
